# credit: patent US7166579B2

Target: human peptide transporter PepT1 (Homo sapiens)
Construct: expressed in transfected cells
Sequence (P46059 1-708): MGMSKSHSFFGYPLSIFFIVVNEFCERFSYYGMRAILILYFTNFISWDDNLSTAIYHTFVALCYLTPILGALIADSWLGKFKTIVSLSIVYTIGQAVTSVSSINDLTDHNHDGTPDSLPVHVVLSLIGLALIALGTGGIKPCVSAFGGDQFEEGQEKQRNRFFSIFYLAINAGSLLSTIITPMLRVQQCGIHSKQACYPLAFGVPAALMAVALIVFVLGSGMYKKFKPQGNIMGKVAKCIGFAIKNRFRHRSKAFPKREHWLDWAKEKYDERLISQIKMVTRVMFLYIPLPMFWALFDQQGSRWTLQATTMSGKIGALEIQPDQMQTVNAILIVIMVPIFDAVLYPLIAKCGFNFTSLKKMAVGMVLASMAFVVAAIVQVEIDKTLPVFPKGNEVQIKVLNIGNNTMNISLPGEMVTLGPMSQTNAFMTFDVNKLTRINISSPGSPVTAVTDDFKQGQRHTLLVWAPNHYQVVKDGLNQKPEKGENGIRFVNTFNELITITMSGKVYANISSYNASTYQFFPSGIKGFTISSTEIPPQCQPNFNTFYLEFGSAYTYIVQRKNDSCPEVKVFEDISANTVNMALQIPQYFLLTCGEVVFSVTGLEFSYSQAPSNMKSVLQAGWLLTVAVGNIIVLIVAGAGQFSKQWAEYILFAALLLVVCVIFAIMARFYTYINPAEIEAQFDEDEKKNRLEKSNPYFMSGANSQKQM
Experiment: Affinity to PepT1 by displacement of radioactively labeled D-Phe-Ala
Details: read-out: Binding constant, mM, to PepT1, relative to D-Phe-Ala
Residues, ends and D or L forms follow the SMILES beside them.
In this section we review reported log10 Ki values for a set of compounds.
measured attribute: log10 Ki (log10 of the value in mM)

| compound | target of assay | log10 Ki |
| --- | --- | --- |
| NC(Cc1c[nH]cn1)C(=O)N1CCCC1 (centres unmarked) [His-Pyr] | human peptide transporter PepT1 (Homo sapiens) | 0.73 |
| NC(=O)CC(N)C(=O)N1CCCC1 (centres unmarked) [Asn-Pyr] | human peptide transporter PepT1 (Homo sapiens) | 0.48 |
| NCCCCC(N)C(=O)NC(Cc1ccccc1)C(=O)N1CCCC1C(=O)O (stereo not drawn) [Lys-Phe-Pro] (H-Lys-Phe-Pro-OH; configuration not given here) | human peptide transporter PepT1 (Homo sapiens) | -0.72 |
| CC[C@H](C)[C@H](N)C(=O)N1CCC[C@H]1C(=O)N[C@H](C(=O)N1CCSC1)[C@@H](C)CC [Ile-Pro-Ile-Thia] | human peptide transporter PepT1 (Homo sapiens) | -0.21 |
| CCC(C)C(N)C(=O)N1CCCC1 (centres unmarked) [Ile-Pyr] | human peptide transporter PepT1 (Homo sapiens) | 0.42 |
| NC(=O)CC(N)C(=O)N1CCSC1 (centres unmarked) [Asn-Thia] | human peptide transporter PepT1 (Homo sapiens) | -0.30 |
| CCC(C)C(N)C(=O)N1CCSC1 (centres unmarked) [Ile-Thia, isoleucyl thiazolidide] | human peptide transporter PepT1 (Homo sapiens) | -0.01 |
| NCCCCC(N)C(=O)NC(Cc1ccccc1)C(=O)O (centres unmarked) [Lys-phe] | human peptide transporter PepT1 (Homo sapiens) | -1.10 |
